Taken from PubChem BioAssay (NCI).

- Tested on: SK-OV-3 ovarian
- assayText: NCI tumour cell line growth inhibition, 48 h; in the data active = GI50 below about 0.43 µM; inactive = the rest
Labels: 1 (yes) (active), 0 (no) (inactive)

[[record]]
compound = "Oc1c(Cl)cc(Cl)cc1/C=N/Nc1nnc(N/N=C/c2cc(Cl)cc(Cl)c2O)c2ccccc12"
group = "0 (no)"

[[record]]
compound = "COc1cc(N2C(=O)[C@H](c3ccccc3)C2c2ccc(SC)cc2)cc(OC)c1OC (stereo partly drawn)"
group = "1 (yes)"

[[record]]
compound = "COc1ccc(NC2=C(I)C(=O)c3ncccc3C2=O)cc1"
group = "0 (no)"


* * *

- Test system: 786-0 renal
- assayText: NCI tumour cell line growth inhibition, 48 h; in the data active = GI50 below about 0.43 µM; inactive = the rest
Labels: active, inactive

[[record]]
compound = "CC(C)(c1ccccc1)c1cc(O)c(C(C)(C)c2ccccc2)cc1O"
testedsystem = "786-0 renal"
group = "inactive"

[[record]]
compound = "O=C(C=P(c1ccccc1)(c1ccccc1)c1ccccc1)CCl"
testedsystem = "786-0 renal"
group = "inactive"

[[record]]
compound = "Cn1cc(-c2nc(-c3c[nH]c4ncccc34)cs2)c2ccccc21"
testedsystem = "786-0 renal"
group = "inactive"

[[record]]
compound = "Cc1ccc2cccc(OC(=O)Nc3cccc(C(F)(F)F)c3)c2n1"
testedsystem = "786-0 renal"
group = "inactive"

[[record]]
compound = "CC(=O)CC/C=C(\\C)[C@H](O)[C@H](C)C(=O)O[C@H]1C[C@H](C)C=C2C=C[C@@]3(C)O[C@@H](O)CC(=O)[C@]3(C)[C@H]21"
testedsystem = "786-0 renal"
group = "inactive"

[[record]]
compound = "CC(C)(C)c1cc(/C=N/NC(=O)c2ccccc2NC(=O)c2cccs2)c(O)c(C(C)(C)C)c1"
testedsystem = "786-0 renal"
group = "inactive"

[[record]]
compound = "N#CC(C#N)=C1CCOc2ccc(F)cc21"
testedsystem = "786-0 renal"
group = "inactive"

[[record]]
compound = "O=[N+]([O-])c1ccc(C(Cl)C(Cl)c2ccc(C(Cl)C(Cl)c3ccc([N+](=O)[O-])cc3[N+](=O)[O-])cc2)c([N+](=O)[O-])c1 (centres undefined)"
testedsystem = "786-0 renal"
group = "active"

[[record]]
compound = "C#Cc1cccc(Nc2ncnc3ccc(OCCCCNCCS(C)(=O)=O)cc23)c1"
testedsystem = "786-0 renal"
group = "inactive"


* * *

- System: T-47D breast
- assayText: NCI tumour cell line growth inhibition, 48 h; in the data active = GI50 below about 0.43 µM; inactive = the rest
Labels: 1 (yes) for active, 0 (no) for inactive

[[record]]
compound = "COc1ccc(/C=C2\\COc3ccc(O)c(O)c3C2=O)c(OC)c1OC"
group = "0 (no)"

[[record]]
compound = "Cn1cc(-c2nc(-c3c[nH]c4ncccc34)cs2)c2ccccc21"
group = "1 (yes)"

[[record]]
compound = "Clc1cc(Cl)c(OCCCCCCN2CCNCC2)c(Cl)c1"
group = "0 (no)"

[[record]]
compound = "NC(=S)N/N=C1\\c2ccccc2-c2c(F)c(F)c(F)c(F)c21"
group = "0 (no)"

[[record]]
compound = "O=C(COc1cccc(/C=C2\\CSc3ccc(Cl)cc3C2=O)c1)c1ccc(Cl)cc1"
group = "0 (no)"

[[record]]
compound = "COc1cc([N+](=O)[O-])c(OC)cc1-c1nc2sc(C)cn2c1/C(N)=N/C(=N)N"
group = "0 (no)"

[[record]]
compound = "CCOC(=O)C1=C(C)NC(=O)NC1CN1C(=O)c2ccccc2C1=O (stereo not drawn)"
group = "0 (no)"

[[record]]
compound = "O=Nc1c(-c2c(O)[nH]c3cc(Br)ccc23)[nH]c2ccccc12"
group = "0 (no)"


* * *

- System: NCI/ADR-RES ovarian
- assayText: NCI tumour cell line growth inhibition, 48 h
attributeMeasured: TGI

[[record]]
compound = "CC12CCC(=O)N1c1cncnc1N2 (stereo unspecified)"
testedsystem = "NCI/ADR-RES ovarian"
reported = "> 10 µM"

[[record]]
compound = "CCOC(=O)CC[C@H](NC(=O)N[C@H](C)c1ccccc1)C(=O)OCC"
testedsystem = "NCI/ADR-RES ovarian"
reported = "75.9 µM"

[[record]]
compound = "COc1ccc2c(C)c(Oc3c(Cl)c(Cl)c(O)c(C#N)c3C#N)oc2c1"
testedsystem = "NCI/ADR-RES ovarian"
reported = "> 100 µM"

[[record]]
compound = "O=C1OC(C2Cc3ccc4c(c3C2=O)CCC4)c2ccccc21 (stereo unspecified)"
testedsystem = "NCI/ADR-RES ovarian"
reported = "> 100 µM"

[[record]]
compound = "CCCCNS(=O)(=O)c1n[nH]c(=O)[nH]c1=O"
testedsystem = "NCI/ADR-RES ovarian"
reported = "> 100 µM"

[[record]]
compound = "CC(C)(C)CC(C)(C)c1ccc(O)c(Cc2ccc(Cl)cc2Cl)c1"
testedsystem = "NCI/ADR-RES ovarian"
reported = "3.05 µM"


* * *

- Test system: A498 renal
- assayText: NCI tumour cell line growth inhibition, 48 h
In this section, each of the compounds is paired with its reported TGI.
attributeMeasured: TGI

[[record]]
compound = "COc1cc2cc(C(=O)N3CC(CCl)c4ccc([N+](=O)[O-])cc43)[nH]c2c(OC)c1OC (stereo not given)"
reported = "> 100 µM"

[[record]]
compound = "COC1=C(C)C(=O)c2c(c(CCCl)c3n2CCC3OC(C)=O)C1=O (stereo not given)"
reported = "0.166 µM"

[[record]]
compound = "CC(C)(C)CC(C)(C)c1ccc(O)c(Cc2ccc(Cl)cc2Cl)c1"
reported = "2.61 µM"

[[record]]
compound = "O=c1oc2ccccc2c(O)c1C(c1cnc2ccccc2c1)c1c(O)c2ccccc2oc1=O"
reported = "> 100 µM"

[[record]]
compound = "CN(C)CCC(CCN(C)C)=NO"
reported = "> 100 µM"


* * *

- Test system: 786-0 renal
- assayText: NCI tumour cell line growth inhibition, 48 h
In this section, each of the compounds is paired with its reported log10 TGI.
attributeMeasured: log10 TGI (log10 of the value in µM)

[[record]]
compound = "COC1=C(C)C(=O)c2c(c(CCCl)c3n2CCC3OC(C)=O)C1=O (stereo not given)"
attributemeasured = "log10 TGI"
reported = 0.09

[[record]]
compound = "COc1ccc(NC(C)=O)cc1N1C(=O)/C(=C\\c2ccccc2)SC1c1cc(OC)c(OC)c(OC)c1 (stereo not given)"
attributemeasured = "log10 TGI"
reported = 1.69

[[record]]
compound = "Oc1[nH]c(=S)[nH]c1/C=C1/C(c2ccccc2)=Nc2ccccc21"
attributemeasured = "log10 TGI"
reported = 1.45

[[record]]
compound = "NC(=S)N/N=C1\\c2ccccc2-c2c(F)c(F)c(F)c(F)c21"
attributemeasured = "log10 TGI"
reported = 1.30

[[record]]
compound = "CCN1c2cc(Br)cc3[nH]c(=O)n(c23)CCC1C (stereo not given)"
attributemeasured = "log10 TGI"
reported = 1.45

[[record]]
compound = "COc1cc(-c2nc3sc(C)cn3c2/C=C2\\C(=O)Nc3ccccc32)c(Br)c(OC)c1OC"
attributemeasured = "log10 TGI"
reported = 1.70

[[record]]
compound = "CN/C=C(\\C(=O)c1ccc(OC)c(OC)c1)c1ccc(OC)cc1"
attributemeasured = "log10 TGI"
reported = 1.38

[[record]]
compound = "COc1ccc(C(=NN=C(N)N)c2ccc(OC)cc2)cc1"
attributemeasured = "log10 TGI"
reported = 1.12

[[record]]
compound = "N#CC(C#N)=C1CCOc2ccc(F)cc21"
attributemeasured = "log10 TGI"
reported = 1.52


* * *

In this section, each of the molecules is paired with its reported TGI.
- Tested on: MALME-3M melanoma
- assayText: NCI tumour cell line growth inhibition, 48 h
attributeMeasured: TGI (µM)

[[record]]
molecule = "O=C(NNC1=NCCCN1)c1ccco1"
attributemeasured = "TGI"
operatorsymbol = ">"
reported = 100

[[record]]
molecule = "O=C1CC(c2ccccc2)Cc2nc3ccc(Br)cc3cc21 (stereo not given)"
attributemeasured = "TGI"
operatorsymbol = ">"
reported = 91.8

[[record]]
molecule = "C=C1[C@H](OCC(C)C)[C@@H](O)[C@@H](OC(=O)c2cccnc2)C(C)(C)/C=C/[C@H](C)[C@H](OC(C)=O)[C@@]2(O)C[C@@](C)(OC(C)=O)[C@H](OC(=O)c3ccccc3)[C@@H]2[C@H]1OC(C)=O"
attributemeasured = "TGI"
operatorsymbol = "="
reported = 1.46

[[record]]
molecule = "c1ccncc1"
attributemeasured = "TGI"
operatorsymbol = ">"
reported = 100

[[record]]
molecule = "CCOC(=O)C1(C/C=C/CCl)CCCC1=O (stereo not given)"
attributemeasured = "TGI"
operatorsymbol = "="
reported = 45.4


* * *

- System: UACC-257 melanoma
- assayText: NCI tumour cell line growth inhibition, 48 h
attributeMeasured: TGI

[[record]]
compound = "CCC/C(Cl)=N/OC(=O)Nc1cc(C(F)(F)F)ccc1OC"
testedsystem = "UACC-257 melanoma"
reported = "30.9 µM"

[[record]]
compound = "CC(=O)OCC1OC(c2c(OC(C)=O)cc(C)c3c(=O)cc(/C(C(C)=O)=C(\\C)O)oc23)C(OC(C)=O)C(OC(C)=O)C1OC(C)=O (stereo not given)"
testedsystem = "UACC-257 melanoma"
reported = "> 100 µM"

[[record]]
compound = "CC(=O)NCCCCN(CCCNC(C)=O)C(=O)CNS(=O)(=O)c1cccc2c(N(C)C)cccc12"
testedsystem = "UACC-257 melanoma"
reported = "> 100 µM"

[[record]]
compound = "COc1cc2c(c(O)c1OC)C(=O)[C@@H]1CCC(=O)N1C2c1ccccc1 (stereo not given in full)"
testedsystem = "UACC-257 melanoma"
reported = "> 100 µM"

[[record]]
compound = "COc1ccc2c(=O)cc(-c3ccc(OC)c(OC)c3OC)oc2c1"
testedsystem = "UACC-257 melanoma"
reported = "> 100 µM"

[[record]]
compound = "Cc1ccc(OCC2OC(n3cnc4nc(Nc5ccc(Cl)c(Cl)c5)nc(Cl)c43)CC2Oc2ccc(C)cc2)cc1 (stereo not given)"
testedsystem = "UACC-257 melanoma"
reported = "> 100 µM"

[[record]]
compound = "O=C(Cc1nc2ccccc2o1)C(=O)Nc1cccc(Cl)c1"
testedsystem = "UACC-257 melanoma"
reported = "> 100 µM"

[[record]]
compound = "O=C(c1ccccc1Cl)n1oc2ccccc2c1=O"
testedsystem = "UACC-257 melanoma"
reported = "> 100 µM"

[[record]]
compound = "CC(C)(c1ccccc1)c1cc(O)c(C(C)(C)c2ccccc2)cc1O"
testedsystem = "UACC-257 melanoma"
reported = "10.7 µM"

[[record]]
compound = "NC(CCOCCP(=O)(O)CCC1C=CC=CC1)C(=O)O (stereo not given)"
testedsystem = "UACC-257 melanoma"
reported = "> 100 µM"

